# System: Rattus norvegicus
# experimentSummary: Anticonvulsant activity in Sprague-Dawley rat assessed as inhibition of maximal electric shock-induced seizure at 30 mg/kg, po after 1 hrs
# Assay type: functional
parameterMeasured: inhibition in vivo at 30 mg/kg (%)
Give the value in % but do not write % after it.

Answered cases to consult:
Nc1ccc(Sc2ccc(N)cc2)cc1 [4,4'-THIODIANILINE] | 100
Nc1ccc(Nc2cccc(N)c2)cc1 | 75
Nc1ccc(C(=O)c2ccc(N)cc2)cc1 | 75
Nc1ccc(Cc2ccc(N)cc2)cc1 [4,4'-METHYLENEDIANILINE] | 100
Nc1ccc(Oc2ccc(N)cc2)cc1 | 75

Bench note, Rattus norvegicus: `Nc1ccc(NC(=O)c2ccc(N)cc2)cc1` , inhibition in vivo at 30 mg/kg reads 50

* * *

Form field: inhibition in vivo at 100 mg/kg (one value per entry).
# Test system: Mus musculus
# experimentSummary: Anticonvulsant activity in CF1 albino mouse assessed as inhibition of maximal electric shock-induced seizure at 100 mg/kg, ip after 4 hrs
# Type: functional
# testContext: route intraperitoneal
Hi, when you answer, please include the unit after the number. Thanks!

Nc1ccc(Oc2ccc(N)cc2)cc1 | 100%
Nc1ccc(Sc2ccc(N)cc2)cc1 [4,4'-THIODIANILINE] | 100%
Nc1ccc(C(=O)c2ccc(N)cc2)cc1 | 100%

Form: molecule = Nc1ccc(Cc2ccc(N)cc2)cc1 [4,4'-METHYLENEDIANILINE] ; inhibition in vivo at 100 mg/kg = 0%

Recorded result, `Nc1ccc(NC(=O)c2ccc(N)cc2)cc1` , inhibition in vivo at 100 mg/kg: 0%

Lab note: `Nc1ccc(Nc2cccc(N)c2)cc1` gave inhibition in vivo at 100 mg/kg of 100%
